test system: HT-29 cells; test: Stress-focused drug screen of 164 compounds with or without LB-100; format: cell-based; details: 2.5 µM LB-100 (sub-lethal); cell viability after three days (FIG. 2C)
outcomeMeasure: toxicity in the presence of LB-100 vs control (normalized AUC)

>  <compound>
N#Cc1cnc(Nc2cc(NC[C@H]3CNCCO3)c(C(F)(F)F)cn2)cn1 [CCT-245737]

>  <valueReported>
increased toxicity

$$$$
>  <compound>
Cn1cc(-c2cnn3c(N)c(Br)c([C@@H]4CCCNC4)nc23)cn1 [SCH-900776]

>  <valueReported>
increased toxicity

$$$$

====

test system: cholangiocarcinoma (CCA) cell lines; experiment: Short-term cell viability dose-response assay (resazurin); assay type: cell-based; conditions: 120 h, read-out: IC50s from dose-response curves
pIC50: −log10 of the molar value.
outcomeMeasure: pIC50

Which value of pIC50 has been reported for CN1CCN(C(=O)[C@@H]2[C@H](C(=O)O)[C@H]3CC[C@@H]2O3)CC1 (racemic) [LB-100] in the records?
≤ 5.33
